Cited source: ChEMBL document CHEMBL1142276

- Species on record: Homo sapiens
- protocol-notes: Ratio of Ki for human recombinant CB2 receptor to human recombinant CB1 receptor
So basically, the class depends on measured Ratio Ki, and the ranges are c1 (below 1), c2 (1 to below 6), c3 (6 or more)

1) Cc1c(C(=O)NN2CCCCC2)nn(-c2ccc(Cl)cc2)c1-n1cccc1
c3
2) Cc1c(C(=O)NC2CCCCC2)nn(-c2ccc(Cl)cc2Cl)c1-n1cccc1
c2
3) Cc1c(C(=O)NCc2ccc(Cl)c(Cl)c2)nn(-c2ccc(F)cc2F)c1-n1c(C)ccc1C
c3
4) Cc1c(C(=O)NC2CCCCC2)nn(-c2ccc(Cl)cc2Cl)c1-n1c(C)ccc1C
c2
5) O=C(NC1CCCCC1)c1cc(-n2cccc2)n(-c2ccc(Cl)cc2)n1
c3
6) Cc1c(C(=O)NN2CCCCC2)nn(-c2ccc(Cl)cc2Cl)c1-n1cccc1
c1
7) Cc1c(C(=O)NC2CCCCC2)nn(-c2ccc(Cl)c(Cl)c2)c1-n1c(C)ccc1C
c1
8) Cc1c(C(=O)NCC2CCCCC2)nn(-c2ccc(Cl)cc2)c1-n1cccc1
c2
9) Cc1c(C(=O)NCc2ccc(Cl)c(Cl)c2)nn(-c2ccc(Cl)cc2Cl)c1-n1c(C)ccc1C
c3
10) Cc1c(C(=O)NN2CCCCC2)nn(-c2c(Cl)cc(Cl)cc2Cl)c1-n1c(C)ccc1C
c3
11) Cc1c(C(=O)NN2CCCCC2)nn(-c2ccc(Cl)cc2Cl)c1-n1c(C)ccc1C
c3
12) Cc1c(C(=O)NCc2ccc(Cl)c(Cl)c2)nn(-c2ccc(Cl)c(Cl)c2)c1-n1c(C)ccc1C
c2
13) Cc1c(C(=O)NC2CCCCC2)nn(-c2ccc(Cl)c(Cl)c2)c1-n1cccc1
c1

* * *

- target-under-test: Cannabinoid receptor 2 (Homo sapiens)
- Sequence (P34972 whole entry): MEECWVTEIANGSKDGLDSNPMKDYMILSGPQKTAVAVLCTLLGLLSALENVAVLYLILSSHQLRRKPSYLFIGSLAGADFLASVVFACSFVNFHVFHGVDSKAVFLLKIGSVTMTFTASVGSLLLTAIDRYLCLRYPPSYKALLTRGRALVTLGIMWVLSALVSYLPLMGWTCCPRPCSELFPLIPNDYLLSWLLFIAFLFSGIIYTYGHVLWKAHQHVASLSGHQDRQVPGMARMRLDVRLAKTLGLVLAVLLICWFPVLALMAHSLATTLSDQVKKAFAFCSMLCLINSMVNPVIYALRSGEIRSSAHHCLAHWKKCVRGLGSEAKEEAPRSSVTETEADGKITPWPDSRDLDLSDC
- protocol-notes: Displacement of [3H]CP-55940 from human recombinant CB2 receptor expressed in HEK cells
- Format: cell-based, HEK293
- study-conditions: read-out: IC50
pIC50: −log10 of the molar value.
measured-quantity: pIC50

1) Cc1c(C(=O)NCC2CCCCC2)nn(-c2ccc(Cl)cc2)c1-n1cccc1
6.30
2) Cc1c(C(=O)NCc2ccc(Cl)c(Cl)c2)nn(-c2ccc(Cl)cc2Cl)c1-n1c(C)ccc1C
5.30
3) Cc1c(C(=O)NN2CCCCC2)nn(-c2ccc(Cl)cc2Cl)c1-n1cccc1
6.70
4) Cc1c(C(=O)NN2CCCCC2)nn(-c2ccc(Cl)c(Cl)c2)c1-n1cccc1
7.60
5) Cc1c(C(=O)NC2CCCCC2)nn(-c2ccc(Cl)c(Cl)c2)c1-n1cccc1
8.66

* * *

Quick record: log10 of Ki, Cannabinoid receptor 1 (Homo sapiens, UniProt P21554).
measured-quantity: log10 of Ki (log10 of the value in nM)

1) Cc1c(C(=O)NC2CCCCC2)nn(-c2ccc(Cl)c(Cl)c2)c1-n1cccc1
0.75
2) O=C(NC1CCCCC1)c1cc(-n2cccc2)n(-c2ccc(Cl)cc2)n1
2.45
3) Cc1c(C(=O)NN2CCCCC2)nn(-c2ccc(Cl)cc2Cl)c1-n1cccc1
3.27
4) Cc1c(C(=O)NC2CCCCC2)nn(-c2ccc(Cl)c(Cl)c2)c1-n1c(C)ccc1C
1.15
5) Cc1c(C(=O)NCc2ccc(Cl)c(Cl)c2)nn(-c2ccc(Cl)cc2Cl)c1-n1c(C)ccc1C
1.45
6) Cc1c(C(=O)NN2CCCCC2)nn(-c2c(Cl)cc(Cl)cc2Cl)c1-n1cccc1
3.26
7) Cc1c(C(=O)NCC2CCCCC2)nn(-c2ccc(Cl)cc2)c1-n1cccc1
2.04
8) Cc1c(C(=O)NC2CCCCC2)nn(-c2ccc(Cl)cc2Cl)c1-n1c(C)ccc1C
1.62
9) Cc1c(C(=O)NCc2ccc(Cl)c(Cl)c2)nn(-c2ccc(Cl)c(Cl)c2)c1-n1c(C)ccc1C
2.45
10) N#Cc1c(C(=O)NN2CCCCC2)nn(-c2ccc(Cl)cc2)c1-n1cccc1
3.45
11) Cc1c(C(=O)NC2CCCCC2)nn(-c2ccc(Cl)cc2Cl)c1-n1cccc1
1.75

* * *

- target-under-test: Cannabinoid receptor 1 (Homo sapiens)
- Sequence (P21554 whole entry): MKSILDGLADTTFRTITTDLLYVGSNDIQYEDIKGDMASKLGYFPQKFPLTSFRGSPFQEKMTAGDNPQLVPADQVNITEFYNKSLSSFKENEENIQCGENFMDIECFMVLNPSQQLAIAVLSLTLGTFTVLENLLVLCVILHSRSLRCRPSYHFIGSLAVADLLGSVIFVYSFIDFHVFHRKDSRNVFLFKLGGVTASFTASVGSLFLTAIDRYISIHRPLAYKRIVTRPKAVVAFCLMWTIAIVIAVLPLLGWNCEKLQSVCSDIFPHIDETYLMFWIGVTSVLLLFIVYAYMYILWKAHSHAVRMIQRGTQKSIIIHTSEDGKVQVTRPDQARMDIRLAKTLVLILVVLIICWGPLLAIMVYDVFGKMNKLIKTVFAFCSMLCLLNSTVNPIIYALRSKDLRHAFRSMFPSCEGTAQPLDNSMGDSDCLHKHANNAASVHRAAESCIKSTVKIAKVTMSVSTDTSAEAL
- protocol-notes: biochemical
- Description: Displacement of [3H]CP-55940 from human recombinant CB1 receptor expressed in HEK cells
Entries and their measured IC50 follow.
measured-quantity: IC50 (nM)

1) Cc1c(C(=O)NC2CCCCC2)nn(-c2ccc(Cl)cc2Cl)c1-n1c(C)ccc1C
74
2) Cc1c(C(=O)NN2CCCCC2)nn(-c2ccc(Cl)cc2)c1-n1cccc1
200
3) Cc1c(C(=O)NN2CCCCC2)nn(-c2ccc(Cl)cc2Cl)c1-n1c(C)ccc1C
67
4) Cc1c(C(=O)NN2CCCCC2)nn(-c2ccc(Cl)cc2Cl)c1-n1cccc1
3300
5) O=C(NC1CCCCC1)c1cc(-n2cccc2)n(-c2ccc(Cl)cc2)n1
500
6) Cc1c(C(=O)NC2CCCCC2)nn(-c2ccc(Cl)cc2Cl)c1-n1cccc1
100
